# Target or system: UniProt O15530
# Assay info: PDK1 kinase assay (coupled PDK1/AKT/FAM-crosstide assay, IMAP fluorescence polarization)
# Format: biochemical
# Run conditions: inhibition of phospo-PDK1 in vitro
Counter-ions that a name gives are not always drawn.
# IC50 annotations

Answered cases to consult:
INSERT INTO assay_data (molecule, target_or_system, endpoint, recorded_value) VALUES
  ('Cn1cnc2cnc3ccc(-c4ccc(CNc5ncc(C#N)nc5C(=O)NCc5ccc(F)c(F)c5)s4)cc3c21 [Example 3.81, (TFA salt)]', 'UniProt O15530', 'IC50', '< 100 nM'),
  ('CCNC(=O)c1cccnc1NCc1cccc(-c2c[nH]c3ncccc23)c1', 'UniProt O15530', 'IC50', '> 5000 nM'),
  ('C[C@H](NC(=O)c1cc(S(C)(=O)=O)cnc1NCc1ccc(-c2ccc3ncnc(N)c3c2)s1)c1ccc(F)cc1', 'UniProt O15530', 'IC50', '100 to 1000 nM'),
  ('C[C@H](NC(=O)c1cnccc1NCc1ccc(-c2ccc3ncnc(N)c3c2)s1)c1ccc(F)c(F)c1', 'UniProt O15530', 'IC50', '1000 to 5000 nM'),
  ('C[C@H](NC(=O)c1cccnc1NCc1ccc(-c2ccc3ncnc(NCCN)c3c2)s1)c1ccc(F)cc1', 'UniProt O15530', 'IC50', '100 to 1000 nM');

Given item Nc1ncnc2ccc(-c3ccc(CNc4ncccc4C(=O)N(Cc4cncc(F)c4)Cc4cncc(F)c4)s3)cc12 [Example 3.64, (TFA salt)] , the value recorded as its IC50 is > 5000 nM

molecule `COc1cnc(NCc2ccc(-c3ccc4ncnc(N)c4c3)s2)c(C(=O)NCc2ccc(F)c(F)c2)c1` , IC50 observed: < 100 nM

Entry `Cn1cnc2cnc(-c3ccc(CNc4nc5ccccc5cc4C(=O)NCc4ccc(F)c(F)c4)s3)cc21` , IC50 reported as > 5000 nM

GET /value?item= `O=C(NCc1ccc(F)c(F)c1)c1cccnc1NCc1cc(-c2c[nH]c3ncccc23)ccn1` &field=IC50 returns < 100 nM

Reported IC50 of `O=C(NCc1ccc(F)c(F)c1)c1cccnc1NCCOc1ccc2c(c1)[nH]c1ncccc12` : < 100 nM

###

# Target or system: PDK1 (Homo sapiens (Human))
# Sequence (O15530 51-359): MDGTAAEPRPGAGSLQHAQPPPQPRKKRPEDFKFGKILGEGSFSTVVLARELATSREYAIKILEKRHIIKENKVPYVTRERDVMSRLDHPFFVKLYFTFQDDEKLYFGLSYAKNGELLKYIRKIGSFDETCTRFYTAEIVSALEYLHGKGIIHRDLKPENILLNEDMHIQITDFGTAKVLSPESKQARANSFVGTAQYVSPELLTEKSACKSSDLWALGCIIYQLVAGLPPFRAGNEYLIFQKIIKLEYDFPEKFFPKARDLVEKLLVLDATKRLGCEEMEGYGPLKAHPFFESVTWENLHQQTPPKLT
# Assay info: PDK1 kinase assay (coupled PDK1/AKT/FAM-crosstide assay, IMAP fluorescence polarization)
# Assay type: biochemical
# Run conditions: inhibition of phospo-PDK1 in vitro
pIC50: −log10 of the molar value. Counter-ions that a name gives are not always drawn.
Endpoint: pIC50

INSERT INTO assay_data (compound, endpoint, recorded_value) VALUES
  ('Nc1ncnc2ccc(-c3ccc(CNc4nccnc4C(=O)NCc4cccc(F)c4)s3)cc12 [Example 3.73, (TFA salt)]', 'pIC50', '> 7.00'),
  ('C[C@H](NC(=O)c1cccnc1NCc1ccc(-c2ccc3ncnc(N)c3c2)s1)c1ccc(F)cn1 [Example 3.66, (TFA salt)]', 'pIC50', '6.00 to 7.00'),
  ('O=C(NCc1ccc(F)c(F)c1)c1cc(C(F)(F)F)cnc1N[C@@H](COc1ccc2[nH]c(=O)[nH]c2c1)c1ccccc1', 'pIC50', '5.30 to 6.00'),
  ('CC(C)Oc1cc(CNc2ncccc2C(=O)N(C)C2CCCCC2)cc(-c2c[nH]c3ncc(C(=O)NC4CC4)cc23)c1', 'pIC50', '< 5.30'),
  ('CC(C)Oc1cc(CNc2ncccc2C(=O)NCc2ccc(F)c(F)c2)cc(-c2c[nH]c3ncncc23)c1', 'pIC50', '> 7.00'),
  ('C[C@H](NC(=O)c1cc(I)cnc1NCc1ccc(-c2ccc3ncnc(N)c3c2)s1)c1ccc(F)cc1', 'pIC50', '6.00 to 7.00');

pIC50 in this record for `CC(C)Oc1cc(CNc2ncccc2C(=O)NC2CC2)cc(-c2c[nH]c3ncc(C(=O)NC4CC4)cc23)c1` : 5.30 to 6.00

pIC50 reported for this compound `CC(C)Oc1cc(CNc2ncccc2C(=O)NCc2ccc(F)c(F)c2)cc(-c2ccc3ncccc3c2)c1` : 5.30 to 6.00

`C[C@H](NC(=O)c1cccnc1N[C@@H](COc1ccc2[nH]c(=O)[nH]c2c1)c1ccccc1)c1ccc(F)c(F)c1` yielded pIC50 of 6.00 to 7.00

Looking up `CCC(=O)Nc1cnc(NCc2ccc(-c3ccc4ncnc(N)c4c3)s2)c(C(=O)NCc2ccc(F)c(F)c2)c1` , I found its pIC50 recorded as > 7.00

Please fill in: pIC50 reported for `O=C(NCc1ccc(F)c(F)c1)c1cccnc1N[C@@H](COc1ccc2[nH]c(=O)[nH]c2c1)c1ccccc1` = > 7.00
